Hey, just so you know, these numbers are from patent US20230312709A1.

Here the recorded EC50 is given for each entry.
target: T1, monkey CD47 on CHO-cynoCD47 cells (monkey); experiment: flow cytometry on CHO-cynoCD47 cells, MFI curve
T1 construct: whole, on cells; Cell line named CHO-cynoCD47; the text calls the species 'monkey'
QUANTITY_NAME: EC50 (nM)

BINDER	UNIT_ANNOTATION	QUANTITATIVE_READOUT
7A11H12 (antibody, V domains shown, also called CD47 antibody) VH: QVQLVQPGAEVKKPGASVKLSCKASGSSFTSNWMNWVRQAPGQGLEWIGMIHPSDSETRLNQKFKDRATLTVDKSTSTAYMELSSPRSEDTAVYYCARGTTVVDAFAYWGQGTTVTVSS VL: DIQMTQSPSSLSASVGDRVTMTCKSSQSLLNSRTRKNYLAWYQQKPGKAPKLLIYWASTRESGVPSRFSGSGSGTDFTLTISSLQPEDFATYYCKQSYNLRTFGGGTKLEIK	nM	7.35
7A11H11 (antibody, V domains shown, also called CD47 antibody) VH: QVQLVQPGAEVKKPGASVKLSCKASGSSFTSNWMNWVRQAPGQGLEWIGMIHPSDSETRLNQKFKDRATLTVDKSTSTAYMELSSPRSEDTAVYYCARGTTVVDAFAYWGQGTTVTVSS VL: DIVMTQSPDSLAVSLGERATMNCKSSQSLLNSRTRKNYLAWYQQKPGQPPKLLIYWASTRESGVPDRFSGSGSGTDFTLTISSLQAEDVAVYYCKQSYNLRTFGGGTKLEIK	nM	8.93
7A11H52 (antibody, V domains shown, also called CD47 antibody) VH: QVQLVQSGAEVKKPGSSVKVSCKASGGTFTSNWMNWVRQAPGQGLEWIGMIHPSDSETRLNQKFQGRVTITADKSTSTAYMELSSLRSEDTAVYYCARGTTVVDAFAYWGQGTTVTVSS VL: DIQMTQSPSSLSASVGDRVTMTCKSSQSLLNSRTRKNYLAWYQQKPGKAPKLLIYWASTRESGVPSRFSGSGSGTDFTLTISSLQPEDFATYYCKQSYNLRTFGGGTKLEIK	nM	4.51
7A11H15 (antibody, V domains shown, also called CD47 antibody) VH: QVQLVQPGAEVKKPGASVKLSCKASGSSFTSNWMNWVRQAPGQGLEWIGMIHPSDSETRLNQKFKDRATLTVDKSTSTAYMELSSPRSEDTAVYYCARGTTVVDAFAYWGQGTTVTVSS VL: EIVMTQSPPTLSLSPGERVTMSCKSSQSLLNSRTRKNYLAWYQQKPGQAPRLLIYWASTRESGIPARFSGSGSGTDFTLTISSLQPEDFAVYYCKQSYNLRTFGGGTKLEIK	nM	7.27
7A11H34 (antibody, V domains shown, also called CD47 antibody) VH: QVQLVQSGAEVKKPGSSVKVSCKASGSSFTSNWMNWVRQAPGQGLEWIGMIHPSDSETRLNQKFKDRVTITADKSTSTAYMELSSLRSEDTAVYYCARGTTVVDAFAYWGQGTTVTVSS VL: DIVMTQSPDSLAVSLGERATMNCKSSQSLLNTRTRKNYLAWYQQKPGQPPKLLIYWASTRESGVPDRFSGSGSGTDFTLTISSLQAEDVAVYYCKQSYNLRTFGGGTKLEIK	nM	8.61
